protocol: Mice pharmacokinetic evaluation (LC-MS/MS of plasma)
Assay type: in vivo, ICR mice
condition.label: male, ICR, mouse, plasma, po, 10 mg/kg, oral 10 mg/kg, 24.0 h, Mean; read-out: Plasma concentration of active compound
observed.property: concentration at 24 h

>>> result("CSc1nccc(N2CCC(N(C)Cc3ccc(C#N)cc3)CC2)n1 [Example 36]")
"1.32 ng/mL"

----------
protocol: Mice pharmacokinetic evaluation (LC-MS/MS of plasma)
Type: in vivo, ICR mice
condition.label: male, ICR, mouse, plasma, iv, 1 mg/kg, intravenous 1.0 mg/kg, 0.08 h, individual mice 4-6; read-out: Plasma concentration of active compound
observed.property: concentration at 0.08 h

>>> result("CSc1nccc(N2CCC(N(C)Cc3ccc(C#N)cc3)CC2)n1 [Example 36]")
"96.6 ng/mL"

----------
protocol: Mice pharmacokinetic evaluation (LC-MS/MS of plasma)
Type: in vivo, ICR mice
condition.label: male, ICR, mouse, plasma, po, 10 mg/kg, oral 10 mg/kg, 0.25 h, Mean; read-out: Plasma concentration of active compound
observed.property: concentration at 0.25 h (ng/mL)

>>> number("CSc1nccc(N2CCC(N(C)Cc3ccc(C#N)cc3)CC2)n1")
203

----------
protocol: Mice pharmacokinetic evaluation (LC-MS/MS of plasma)
Format: in vivo, ICR mice
condition.label: male, ICR, mouse, plasma, iv, 1 mg/kg, intravenous 1.0 mg/kg, 2.0 h, Mean; read-out: Plasma concentration of active compound
observed.property: concentration at 2 h (ng/mL)

>>> number("CSc1nccc(N2CCC(N(C)Cc3ccc(C#N)cc3)CC2)n1")
1.77

----------
protocol: Mice pharmacokinetic evaluation (LC-MS/MS of plasma)
Assay type: in vivo, ICR mice
condition.label: male, ICR, mouse, plasma, iv, 1 mg/kg, intravenous 1.0 mg/kg, 0.17 h, individual mice 4-6; read-out: Plasma concentration of active compound
observed.property: concentration at 0.17 h

>>> result("CSc1nccc(N2CCC(N(C)Cc3ccc(C#N)cc3)CC2)n1")
"79.6 ng/mL"

----------
protocol: Mice pharmacokinetic evaluation (LC-MS/MS of plasma)
Format: in vivo, ICR mice
condition.label: male, ICR, mouse, plasma, po, 10 mg/kg, Po 10 mg/kg, Mean ± SD, n = 3
observed.property: AUC(0-inf) (ng·h/mL)

>>> number("CSc1nccc(N2CCC(N(C)Cc3ccc(C#N)cc3)CC2)n1")
280

----------
protocol: Mice pharmacokinetic evaluation (LC-MS/MS of plasma)
Type: in vivo, ICR mice
condition.label: male, ICR, mouse, plasma, iv, 1 mg/kg, intravenous 1.0 mg/kg, 8.0 h, individual mice 4-6; read-out: Plasma concentration of active compound
Method: Mice pharmacokinetic evaluation of the compound of Example 36 according to the method described below ICR mice, SPS grade, male, weighed […], license number SCXK (Beijing) 2012-0001, purchased from Beijing Vital River Laboratory Animal Technology Co. Ltd. […] Pharmacokinetic parameters were calculated using non-compartment model of Winnonlin® software (Version 5.2.1, USA). […] Bioavailability is calculated as follows: […]
observed.property: concentration at 8 h

>>> result("CSc1nccc(N2CCC(N(C)Cc3ccc(C#N)cc3)CC2)n1 [Example 36]")
"0.7 ng/mL"

----------
protocol: Mice pharmacokinetic evaluation (LC-MS/MS of plasma)
Format: in vivo, ICR mice
condition.label: male, ICR, mouse, plasma, po, 10 mg/kg, oral 10 mg/kg, 8.0 h, Mean; read-out: Plasma concentration of active compound
observed.property: concentration at 8 h (ng/mL)

>>> number("CSc1nccc(N2CCC(N(C)Cc3ccc(C#N)cc3)CC2)n1 [Example 36]")
2.71
